Reference for the values: patent US7858635B2

- studyTarget: M4 muscarinic receptor (Homo sapiens, UniProt P08173)
- Construct: expressed in transfected cells; host or cells: CHO cells (M4-CHO, under puromycin, zeocin and blasticidin selection)
- Sequence (P08173 whole entry): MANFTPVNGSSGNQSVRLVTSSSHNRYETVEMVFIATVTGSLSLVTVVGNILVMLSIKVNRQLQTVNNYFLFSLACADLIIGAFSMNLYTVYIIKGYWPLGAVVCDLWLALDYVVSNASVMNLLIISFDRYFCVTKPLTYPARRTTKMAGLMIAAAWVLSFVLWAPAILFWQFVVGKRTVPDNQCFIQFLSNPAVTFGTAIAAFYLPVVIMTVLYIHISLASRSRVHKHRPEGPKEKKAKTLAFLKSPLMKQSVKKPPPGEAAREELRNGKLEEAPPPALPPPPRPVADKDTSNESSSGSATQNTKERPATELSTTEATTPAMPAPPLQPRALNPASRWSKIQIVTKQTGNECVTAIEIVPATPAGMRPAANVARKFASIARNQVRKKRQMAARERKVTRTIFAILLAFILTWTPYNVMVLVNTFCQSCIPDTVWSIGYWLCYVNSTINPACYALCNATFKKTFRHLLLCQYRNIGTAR
- methodSummary: Functional mobilization of intracellular calcium (FLIPR, Fluo-3), M4-CHO cells
- Type: cell-based
- conditionSet: compound nos. 1-454; 100% efficacy is the maximum response obtained with the Carbachol control; read-out: M4 Efficacy

compound: C/C=C\c1ccc2c(c1)C1(CCN(C3CCN(C(=O)OCC)CC3)CC1)CN2C(C)=O [compound 407]
studyTarget: M4 muscarinic receptor (Homo sapiens, UniProt P08173)
Emax: < 55%

compound: CC(=O)NC1CC2(CCN(C3CCCCCC3)CC2)c2ccccc21 (stereo not drawn) [compound 159]
studyTarget: M4 muscarinic receptor (Homo sapiens, UniProt P08173)
Emax: > 70%

compound: O=C(OCC(F)F)N1C2CCC1CC(N1CCC3(CC1)COc1ccc(F)cc13)C2 (stereo not drawn) [compound 186]
studyTarget: M4 muscarinic receptor (Homo sapiens, UniProt P08173)
Emax: 55 to 70%

compound: COC(=O)N1CCC(CN2CCC3(CC2)CN(C(C)=O)c2ccc(C)cc23)CC1 [compound 423]
studyTarget: M4 muscarinic receptor (Homo sapiens, UniProt P08173)
Emax: < 55%

compound: CCOC(=O)N1CCC(N2CCC3(CC2)CN(CCOC)c2ccc(F)cc23)CC1 [compound 391]
studyTarget: M4 muscarinic receptor (Homo sapiens, UniProt P08173)
Emax: < 55%

compound: COCCOC(=O)N1CCC(CN2CCC3(CC2)CN(C(C)=O)c2ccc(F)cc23)CC1 [compound 26]
studyTarget: M4 muscarinic receptor (Homo sapiens, UniProt P08173)
Emax: < 55%

compound: CC(=O)N[C@H]1CC2(CCN(CC3CCN(C(=O)OC(C)C)CC3)CC2)c2ccccc21 [compound 399]
studyTarget: M4 muscarinic receptor (Homo sapiens, UniProt P08173)
Emax: < 55%

compound: COC(=O)N1CCCC(N2CCC3(CC2)CN(C(C)=O)c2ccc(F)cc23)CC1 (stereo not drawn) [compound 132]
studyTarget: M4 muscarinic receptor (Homo sapiens, UniProt P08173)
Emax: > 70%

compound: CCOC(=O)N1CCC(N2CCC3(CC2)CN(C(C)=O)c2ccc(-c4ccc(NC(C)=O)cc4)cc23)CC1 [compound 10]
studyTarget: M4 muscarinic receptor (Homo sapiens, UniProt P08173)
Emax: 55 to 70%

compound: CCOC(=O)N1CCC(N2CCC3(CC2)CN(C(=O)N(C)c2ccccc2)c2ccc(F)cc23)CC1 [compound 169]
studyTarget: M4 muscarinic receptor (Homo sapiens, UniProt P08173)
Emax: > 70%

compound: CCCOC(=O)N1C2CCC1CC(N1CCC3(CC1)CN(C(=O)OCCOC)c1ccc(F)cc13)C2 (stereo not drawn) [compound 405]
studyTarget: M4 muscarinic receptor (Homo sapiens, UniProt P08173)
Emax: < 55%

compound: CC(=O)N1CC2(CCN(CC3CCN(C(=O)O[C@@H]4CCOC4)CC3)CC2)c2cc(F)ccc21 [compound 14]
studyTarget: M4 muscarinic receptor (Homo sapiens, UniProt P08173)
Emax: > 70%
